Reported values of IC50 for individual entries
- Assayed target: UniProt:O43614
- Sequence (O43614 whole entry): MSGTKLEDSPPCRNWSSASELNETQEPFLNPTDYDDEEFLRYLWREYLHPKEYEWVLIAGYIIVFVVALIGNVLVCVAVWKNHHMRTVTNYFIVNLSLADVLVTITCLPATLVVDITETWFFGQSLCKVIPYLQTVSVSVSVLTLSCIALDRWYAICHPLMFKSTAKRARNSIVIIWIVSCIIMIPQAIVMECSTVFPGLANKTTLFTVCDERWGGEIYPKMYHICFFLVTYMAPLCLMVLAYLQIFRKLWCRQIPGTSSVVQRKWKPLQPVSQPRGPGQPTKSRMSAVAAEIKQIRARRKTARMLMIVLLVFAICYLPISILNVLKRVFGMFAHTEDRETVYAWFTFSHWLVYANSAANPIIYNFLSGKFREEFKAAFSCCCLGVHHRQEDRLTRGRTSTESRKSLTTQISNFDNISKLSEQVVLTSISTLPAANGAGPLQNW
- Method notes: In vitro assay: intracellular calcium measurements (FLIPR), antagonistic activity
- Conditions: CHO cells expressing human orexin-2 receptor, orexin-A agonist, geometric mean, read-out: IC50 Ox2
Only the number, expressed in nM, is required.

Some solved entries appear below for comparison.
# Compound, Measurement units, IC50
rows = [
    ("C=C1CC(c2nc3c(C)cc(C)cc3[nH]2)N(C(=O)c2cc(C)sc2-c2ccc(C)c(C)c2)C1 (stereo not shown)", "nM", 4),
    ("CO[C@H]1CN(C(=O)c2cc(C)c(C)cc2-n2nccn2)C(C)(c2nc3c(C)c(Cl)ccc3[nH]2)C1 (stereo partly shown)", "nM", 4),
]

Report IC50, nothing else, for this compound: COc1ccc2nc([C@@H]3CCCN3C(=O)c3c(C)cccc3-n3nccn3)[nH]c2c1
22

Report IC50, nothing else, for this compound: COc1ccc(-c2ccc(C)cc2C(=O)N2CCC[C@@]2(C)c2nc3cc(C(F)(F)F)ccc3[nH]2)cc1
69
